Tested on: RXF 393 renal
test.name: NCI-60 one-dose screen, 48 h (100 = growth as untreated, 0 = no growth, -100 = all killed)
condition.summary: 10 µM unless noted
This is part of a sample that, as a whole, favours compounds with a hit. Of some 83,000 tested, about 20% had one in any assay.

[
  {
    "compound": "Oc1ccc2c(c1)CCc1ccccc1-2",
    "target": "RXF 393 renal",
    "growth, %": 92.6
  },
  {
    "compound": "O=C(/C=C/C(Cl)(Cl)Cl)Nc1ccc(Cl)cc1",
    "target": "RXF 393 renal",
    "growth, %": 87
  },
  {
    "compound": "CC(C)c1ccc(Nc2n[nH]c(=S)s2)cc1",
    "target": "RXF 393 renal",
    "growth, %": 109
  },
  {
    "compound": "COC1=CC(=O)c2c(O)c3c(c(O)c2C1=O)CC(C)(O)OC3 (stereo not given)",
    "target": "RXF 393 renal",
    "growth, %": 11.1
  },
  {
    "compound": "CC(C)(C)c1ccc(O)c(-c2ccccc2)c1",
    "target": "RXF 393 renal",
    "growth, %": 112
  },
  {
    "compound": "O=[N+]([O-])C=C(c1ccccc1)c1ccccc1",
    "target": "RXF 393 renal",
    "growth, %": 78.5
  },
  {
    "compound": "NCCCN(CCCN)CCCNCc1c2ccccc2c(CNCCCN(CCCN)CCCN)c2ccccc12",
    "target": "RXF 393 renal",
    "growth, %": 98.4
  },
  {
    "compound": "N=C1C=C(N)C(=O)c2ccccc21",
    "target": "RXF 393 renal",
    "growth, %": -97.1
  },
  {
    "compound": "Oc1c(Cl)cc(Cl)cc1C(c1cc(Cl)cc(Cl)c1O)C(Cl)(Cl)Cl",
    "target": "RXF 393 renal",
    "growth, %": -30.7
  },
  {
    "compound": "CC(C)Nc1ccc(Nc2ccc(NC(C)C)cc2)cc1",
    "target": "RXF 393 renal",
    "growth, %": 77.5
  },
  {
    "compound": "O=C(O)c1ccc2c(c1)C(=O)c1ccccc1C2=O",
    "target": "RXF 393 renal",
    "growth, %": 110
  },
  {
    "compound": "Cc1cc(C(=C2C=CC(=Nc3ccccc3)C=C2)c2ccc(Nc3ccccc3)cc2)ccc1N",
    "target": "RXF 393 renal",
    "growth, %": -93.7
  },
  {
    "compound": "CCOC(=O)NC(/C=C/c1ccccc1)NC(=O)OCC",
    "target": "RXF 393 renal",
    "growth, %": 121
  },
  {
    "compound": "Oc1ccc2ccccc2c1N=Nc1ccccn1",
    "target": "RXF 393 renal",
    "growth, %": 38.3
  },
  {
    "compound": "c1ccc(C2NCCNC2c2ccccc2)cc1 (stereo not given)",
    "target": "RXF 393 renal",
    "growth, %": 120
  },
  {
    "compound": "Clc1ccc(Cc2nc3ccccc3s2)cc1",
    "target": "RXF 393 renal",
    "growth, %": 112
  },
  {
    "compound": "CCCCCCCCCCCC1=NCCCN1CCCC",
    "target": "RXF 393 renal",
    "growth, %": 122
  },
  {
    "compound": "O=C1/C(=C/c2ccccc2)CCC/C1=C\\c1ccccc1",
    "target": "RXF 393 renal",
    "growth, %": 98
  },
  {
    "compound": "CC1(C)CCCC2=C1C(=O)N(SC(Cl)(Cl)Cl)C2=O",
    "target": "RXF 393 renal",
    "growth, %": 90
  },
  {
    "compound": "COc1cc([C@@H]2c3cc4c(cc3[C@H](OC3OC5COC(c6ccccc6)OC5C(O)C3O)[C@H]3COC(=O)[C@H]23)OCO4)cc(OC)c1OC (stereo not given in full)",
    "target": "RXF 393 renal",
    "growth, %": 65.7
  },
  {
    "compound": "Clc1ccc(-n2ncc3c(NCCCN4CCOCC4)ncnc32)cc1",
    "target": "RXF 393 renal",
    "growth, %": 90.3
  },
  {
    "compound": "N#CC(I)CS(=O)(=O)c1ccccc1 (stereo not given)",
    "target": "RXF 393 renal",
    "growth, %": 81.8
  },
  {
    "compound": "Cc1onc(-c2ccccc2)c1C(=O)N/N=C/c1cc(Cl)cc(Cl)c1O",
    "target": "RXF 393 renal",
    "growth, %": 64.1
  },
  {
    "compound": "O=C(c1ccccc1)C(Br)C(Br)c1ccccc1 (stereo not given)",
    "target": "RXF 393 renal",
    "growth, %": 33.6
  },
  {
    "compound": "CCC(C)(O)Cc1ccc(Cl)cc1 (stereo not given)",
    "target": "RXF 393 renal",
    "growth, %": 101
  }
]
